# Tested on: AGS
# Assay Info: Antiproliferative activity against human AGS by MTT assay
# Assay type: functional, cell-based
Readout Type: IC50 (µM)
Give bare numbers, in µM.

## Input # return recorded IC50 for entry `OC/C=C(\Cc1ccccc1)c1ccccn1`
## Output 1980

----------
# Tested on: HepG2
# Assay Info: Antiproliferative activity against human HepG2 by MTT assay
# Assay type: functional, cell-based
Readout Type: pIC50
One number for each entry, as −log10 of the molar value.

## Input Read the entry `OC/C=C(\Cc1ccccc1)c1ccccn1` and write its reported pIC50.
## Output 2.80
